# Test System: Receptor-type tyrosine-protein kinase FLT3 (Homo sapiens)
# Assay Notes: Inhibition of FLT3 at 1 uM
Parameter: inhibition

Sample records with inhibition:
O=C(O)c1ccc(-c2cnc3c(c2)N(Cc2cc(Cl)ccc2C(F)(F)F)CCN3)cc1	< 50%
O=C(c1ccc(-c2cnc3c(c2)N(Cc2cc(Cl)ccc2C(F)(F)F)CCN3)cc1)N1CCCCC1	< 50%

Let us examine a further case.
What value of inhibition has been reported for the following molecule? `CN1CCN(c2ccc(-c3cnc4c(c3)N(Cc3c(F)ccc(F)c3Cl)CCN4)cn2)CC1`
< 50%
